study-target: Calcium/calmodulin-dependent protein kinase type II subunit delta (Homo sapiens) (UniProt Q13557);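 note: mean percent inhibition of CAMK2D, from screening of the GSK Published Kinase Inhibitor Set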
Sequence (Q13557 whole entry): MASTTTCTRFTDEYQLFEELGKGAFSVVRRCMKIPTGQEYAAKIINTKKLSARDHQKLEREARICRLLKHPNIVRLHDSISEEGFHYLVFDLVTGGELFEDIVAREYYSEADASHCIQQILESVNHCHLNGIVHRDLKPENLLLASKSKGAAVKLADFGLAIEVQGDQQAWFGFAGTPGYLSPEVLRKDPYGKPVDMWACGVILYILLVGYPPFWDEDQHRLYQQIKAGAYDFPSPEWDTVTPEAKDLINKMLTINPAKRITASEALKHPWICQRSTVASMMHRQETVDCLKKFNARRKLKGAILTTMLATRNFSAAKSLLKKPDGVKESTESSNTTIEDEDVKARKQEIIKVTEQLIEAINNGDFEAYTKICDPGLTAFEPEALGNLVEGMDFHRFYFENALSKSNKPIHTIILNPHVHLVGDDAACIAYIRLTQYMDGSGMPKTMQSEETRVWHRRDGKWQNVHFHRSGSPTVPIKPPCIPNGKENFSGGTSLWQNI
conditions-used: at 1 µM
Could you please report measured inhibition for the items listed next?
Answers are plain numbers, in %.

# batch size: 2; output inhibition per entry
1. c1ccc(Nc2ncc(-c3ccccc3)o2)cc1
2. [O-][S+]1CCN(Cc2ccc(-c3ccc4ncnc(Nc5ccc(OCc6ccccc6)c(Cl)c5)c4c3)o2)CC1

Result string:
[6.25, 1.03]

Your task in this section: give inhibition for each listed record.
1. CC(C)c1ccc(Nc2nccc(-c3cnn4ncccc34)n2)cc1
2. N#Cc1c(NC(=O)c2ccccc2F)sc2c1CCCC2
3. Nc1ccc(C#Cc2cncnc2Nc2ccc(OCc3cccc(F)c3)c(Cl)c2)cc1
4. NS(=O)(=O)c1ccc(NC=C2C(=O)Nc3ccc4ncsc4c32)cc1

Result string:
1. 8.29
2. 1.91
3. 0.72
4. 30.6

# map each compound to its inhibition
1. COc1ccc(-c2nn3ncccc3c2-c2ccnc(Nc3cccc(C(F)(F)F)c3)n2)cc1
2. Cc1ccc2c(c1)/C(=N/Nc1ccc(S(N)(=O)=O)cc1)C(=O)N2

Result string:
1: 0.95; 2: 3.28

Quick one: give me inhibition for each item below, same order please.
1. CS(=O)(=O)CCNCc1nc(-c2ccc3ncnc(Nc4ccc(OCc5cccc(C(F)(F)F)c5)cc4)c3c2)cs1
2. Cc1ccc(O)cc1Nc1ccnc2ccc(S(C)(=O)=O)cc12

Result string:
3.53
3.36
